Test name: DRUGMATRIX: Phosphodiesterase PDE3 enzyme inhibition (substrate: [3H]cAMP + cAMP)
Type: tissue-based, Homo sapiens
Condition context: platelet; Not Active = under 50% inhibition at 10 µM
Parameter measured: IC50

Some solved entries appear below for comparison.
C1CCC(C(CC2CCCCN2)C2CCCCC2)CC1 (stereo not drawn) [PERHEXILINE] = Not Active
CN(C)c1nc(N(C)C)nc(N(C)C)n1 [ALTRETAMINE] = Not Active
CCCC1O[C@@H]2C[C@H]3[C@@H]4CCC5=CC(=O)C=C[C@]5(C)[C@H]4[C@@H](O)C[C@]3(C)[C@]2(C(=O)CO)O1 (stereo partly drawn) [BUDESONIDE] = Not Active
CNCCCN1c2ccccc2CCc2ccccc21 [DESIPRAMINE] = Not Active
CCCCN1CCCC[C@H]1C(=O)Nc1c(C)cccc1C [LEVOBUPIVACAINE] = Not Active

Take each entry in turn and give its IC50.
1. C[C@]12CCC(=O)C=C1CC[C@@H]1[C@@H]2CC[C@@]2(C)[C@H]1CC[C@]2(C)O [METHYLTESTOSTERONE]
2. Clc1cccc(Cl)c1NC1=NCCN1 [CLONIDINE]
3. CC1=C2C(=CO[C@H](C)[C@H]2C)C(O)=C(C(=O)O)C1=O [CITRININ]

result:
1: Not Active; 2: Not Active; 3: Not Active
